# TGI annotations
Test system: MOLT-4 leukemia
Test: NCI tumour cell line growth inhibition, 48 h

molecule: NC1(C(=O)O)CCCC1C(=O)O (stereo not given)
assay-target: MOLT-4 leukemia
TGI: > 100 µM

molecule: COc1cc2cccc(N=Cc3ccccc3Cl)c2cc1OC
assay-target: MOLT-4 leukemia
TGI: > 100 µM

molecule: CC(C)C(=O)OCC1CCCN2CCCCC12 (stereo not given)
assay-target: MOLT-4 leukemia
TGI: > 100 µM

molecule: O=C(O)CNC(=O)C(CSC(=O)OCC1c2ccccc2-c2ccccc21)NC(=O)CCC(NC(=O)OCC1c2ccccc2-c2ccccc21)C(=O)O (stereo not given)
assay-target: MOLT-4 leukemia
TGI: 45.4 µM

molecule: COC(=O)C(C(=O)C(=O)Nc1nc2ccc([N+](=O)[O-])cc2s1)c1nc2ccc(Cl)cc2[nH]c1=O (stereo not given)
assay-target: MOLT-4 leukemia
TGI: > 100 µM

molecule: N#CCCN(CCC#N)CCN(CCN(CCC#N)CCC#N)CCN(CCC#N)CCC#N
assay-target: MOLT-4 leukemia
TGI: > 100 µM

molecule: O=C(OC1CC(n2cc(F)c(=O)[nH]c2=O)OC1CSC(=O)c1ccccc1)c1ccccc1 (stereo not given)
assay-target: MOLT-4 leukemia
TGI: 81.1 µM

molecule: CC(=O)c1sc2c(c1OC(=O)c1ccc(Cl)cc1)c(=O)n(-c1ccccc1)c(=S)n2-c1ccccc1
assay-target: MOLT-4 leukemia
TGI: 6.68 µM

molecule: O=C(NCCCCNC(=O)OCc1ccc2c(Cl)cc(Cl)c(O)c2n1)OCc1ccc2c(Cl)cc(Cl)c(O)c2n1
assay-target: MOLT-4 leukemia
TGI: > 100 µM

molecule: O=c1c2ccccc2nc2n1CCc1c-2[nH]c2ccc(Br)cc12
assay-target: MOLT-4 leukemia
TGI: > 100 µM

----------
# TGI annotations
Test system: T-47D breast
Test: NCI tumour cell line growth inhibition, 48 h
property-name: TGI

compound: CCOC(=O)NC(Nc1ncn(C(NC(=O)OCC)(C(F)(F)F)C(F)(F)F)n1)(C(F)(F)F)C(F)(F)F
test-result: > 100 µM
//
compound: COc1ccc(CCn2c3c(c4c(O)cccc42)C(=O)c2ccccc2-3)cc1OC
test-result: > 100 µM
//
compound: COc1ccc(/C=C/c2nnc(/C=C/c3ccc(OC)c(OC)c3)o2)cc1OC
test-result: 81.2 µM
//
compound: O=C1c2ccccc2-c2c1c(-c1ccc(O)cc1O)nc1ccc3ccccc3c21
test-result: > 100 µM
//
compound: O=C(N/N=C(/COc1ccccc1Cl)N=Cc1cccnc1)c1ccncc1
test-result: > 100 µM
//
compound: COc1cc(C=O)cc(/C=N/N=C/c2ccccc2O)c1O
test-result: 28.2 µM
//
compound: N=[N+]=NC1C(O)C(CO)OC1n1cnc2c(N)ncnc21 (stereo unspecified)
test-result: > 100 µM
//
compound: CCCCCCCCc1cc[n+](CC(=O)c2ccc(Br)cc2)cc1
test-result: 3.14 µM
//
compound: COc1ccc(C2N(c3ccc(F)c([N+](=O)[O-])c3)C(=O)N3C(c4ccc(OC)cc4)N(c4ccc(F)c([N+](=O)[O-])c4)C(=O)N23)cc1 (stereo unspecified)
test-result: > 100 µM
//
compound: COc1ccc2c(c1)CC[C@@H]1[C@@H]2CC[C@]2(C)C(=O)/C(=C/c3ccc(C#N)cc3)C[C@@H]12
test-result: > 100 µM
//
compound: Cn1cc(-c2nc3c(F)cc4[nH]ncc4c3c3c2CCCC3)c(C(F)(F)F)n1
test-result: 76.9 µM
//
compound: COc1ccccc1N1C(=O)/C(=C\c2cc(OC)c(OC)c(OC)c2)SC1c1ccccc1 (stereo unspecified)
test-result: > 100 µM
//
compound: CC(C)(C)c1ccc(C(=O)Nc2sc3c(c2C#N)CCC(=O)C3)cc1
test-result: 0.905 µM
//
compound: NN/C(=N\S(=O)(=O)c1cc2ccccc2o1)Nc1ccc(Cl)cc1
test-result: > 100 µM
//
compound: CCN1CCC(Oc2c(C#N)ncc3[nH]c4ncccc4c23)CC1
test-result: > 50 µM
//
compound: CCCC(c1nnnn1C1CCCCC1)N1CCN(C(=O)c2ccco2)CC1 (stereo unspecified)
test-result: > 100 µM

----------
# TGI annotations
System: MDA-N
Assay: NCI tumour cell line growth inhibition, 48 h

compound: Cc1ccc(/C=N/Nc2ccccn2)s1
TGI: > 100 µM

compound: O=C(c1c2c(cc3c1CC1(Cc4cc5c(cc4C1)CCCC5)C3)CCCC2)C(Br)Br
TGI: 29 µM

compound: CCCCc1ccc(-n2c(C)c(COC(=O)NC)c(COC(=O)NC)c2C)cc1
TGI: 31.3 µM

compound: O=C(N/N=C(/COc1ccccc1Cl)N=Cc1cccnc1)c1ccncc1
TGI: > 100 µM

compound: C/C(=N\NC(=O)Nc1ccccc1Cl)c1ccc(O)cc1
TGI: > 100 µM

compound: CCCC[C@@H](C)/C=C1\CN2CCC[C@H]2[C@@](C)(O)[C@@H]1O
TGI: > 100 µM

compound: CCC12CCCN3CCc4c(n(c5ccccc45)C(O)(C(=O)OC)C1)C32 (stereo unspecified)
TGI: > 100 µM

compound: COc1ccc(-c2cc(-c3ccccc3)nc(/N=C\c3ccccc3)n2)c(O)c1
TGI: > 100 µM

compound: NN/C(=N\S(=O)(=O)c1cc2ccccc2o1)Nc1ccc(Cl)cc1
TGI: > 100 µM

compound: CC(C)C(=O)OCC1CCCN2CCCCC12 (stereo unspecified)
TGI: > 100 µM

compound: C/C=C/[C@@H]1[C@H]2C(=O)[C@]3(Cl)[C@@H](/C=C/C)[C@@H]3C(=O)[C@@]12Cl
TGI: > 100 µM

compound: CS(=O)(=O)N1CC(CI)c2ccc(O)cc21 (stereo unspecified)
TGI: 6.4 µM

compound: Cc1c(C(=O)OCc2ccccc2)[n+](=O)c2ccccc2n1[O-]
TGI: > 100 µM

compound: O=C(/C=C/c1ccsc1)c1ccc(Cl)cc1
TGI: > 100 µM

compound: Cc1[nH]c2nccn2c(=O)c1CCCl
TGI: 46.6 µM

compound: O=P(O)(O)C(NCC(O)CN1CCOCC1)P(=O)(O)O (stereo unspecified)
TGI: > 100 µM

compound: CCCc1c(Cl)nc(Cl)nc1Cl
TGI: 0.548 µM

compound: Cc1nnc(N)nc1C/C=C/C(Sc1ccc(Cl)cc1)c1ccccc1 (stereo unspecified)
TGI: > 95.9 µM

compound: NC1(C(=O)O)CCCC1C(=O)O (stereo unspecified)
TGI: > 100 µM

compound: c1ccc(-c2cc(-c3cccs3)c(-c3cccs3)s2)cc1
TGI: > 100 µM

compound: CN(C)c1ccc(/C=C/c2nc3ccccc3s2)cc1
TGI: > 100 µM

----------
Test system: HS 578T breast
Test: NCI tumour cell line growth inhibition, 48 h
# GI50 annotations

molecule: N#Cc1c(-c2ccccc2)cc(-c2ccccc2)n(CC(=O)NO)c1=O
GI50: 2 µM
//
molecule: COc1ccc(CCn2c3c(c4c(O)cccc42)C(=O)c2ccccc2-3)cc1OC
GI50: 46.2 µM
//
molecule: CNc1ccc(C(=O)CC(O)CCC(C)C2OC(=O)CC(O)CC(=O)CC(O)CC(O)CC(O)CC(O)CC3(O)CC(O)C(C(=O)NCCN(C)C)C(CC(OC4OC(C)C(O)C(NC(=O)CN5CCN(CCO)CC5)C4O)/C=C/C=C/C=C/C=C\C=C/C=C/C=C/C2C)O3)cc1 (stereo not drawn)
GI50: > 50 µM

----------
System: HCT-116 colon
Test: NCI tumour cell line growth inhibition, 48 h; in the data active = GI50 below about 0.43 µM; inactive = the rest
Outcome codes: active, inactive

compound: Clc1ccc(CCC(Cn2ccnc2)Sc2c(Cl)cccc2Cl)cc1 (configuration not stated)
assay-target: HCT-116 colon
class: inactive
--
compound: COc1ccc(CCn2c3c(c4c(O)cccc42)C(=O)c2ccccc2-3)cc1OC
assay-target: HCT-116 colon
class: inactive
--
compound: CS(=O)(=O)Nc1cc(-c2ccc3ncnc(Nc4ccc5c(cnn5Cc5cccc(F)c5)c4)c3c2)cnc1Cl
assay-target: HCT-116 colon
class: inactive
--
compound: COc1cc(-c2n[nH]nc2-c2ccc3c(c2)OCCO3)cc(OC)c1OC
assay-target: HCT-116 colon
class: active
--
compound: Cc1ccc(-c2c(C#N)[n+](=O)c3cc(Cl)c(Cl)cc3n2[O-])cc1
assay-target: HCT-116 colon
class: inactive
--
compound: NS(=O)(=O)N(c1cc(C(F)(F)F)cc(C(F)(F)F)c1)C1CCN(Cc2ccc(F)cc2)CC1
assay-target: HCT-116 colon
class: inactive
--
compound: COc1ccc(Nc2nccc(Nc3ccc4[nH]ncc4c3)n2)cc1
assay-target: HCT-116 colon
class: inactive

----------
# TGI annotations
Tested on: NCI/ADR-RES ovarian
Test: NCI tumour cell line growth inhibition, 48 h

compound: NC(=O)SCC(=O)Nc1ccc2cccc3c2c1CC3
TGI: > 100 µM

compound: COc1ccc(C2N(c3ccc(F)c([N+](=O)[O-])c3)C(=O)N3C(c4ccc(OC)cc4)N(c4ccc(F)c([N+](=O)[O-])c4)C(=O)N23)cc1 (centres undefined)
TGI: > 100 µM

compound: CC(C)OC(=O)C1=C2c3ncccc3C(=O)N2[C@@H](Cl)[C@@H](Cl)[C@@H]1Cl
TGI: > 100 µM

compound: CC(=O)C(C)CCOC1(C)OCCC1C (centres undefined)
TGI: > 100 µM

compound: COc1ccc(/C=C(\C#N)c2nc3ccccc3c(=O)[nH]2)cc1
TGI: 90.1 µM

compound: CC(C)(/C=N\O)NO
TGI: > 10 µM

compound: Clc1ccc(CCC(Cn2ccnc2)Sc2c(Cl)cccc2Cl)cc1 (centres undefined)
TGI: 11.7 µM

compound: C=Cc1ccccc1 (tested in a mixture with another compound)
TGI: > 75 µg/mL

compound: CN(C)C=Nc1ccc2[nH]c3ccccc3c2c1
TGI: > 100 µM
